# SYSTEM: T1, S. cerevisiae Cks (Cks1), wild type (S. cerevisiae, UniProt P20486 1-150)
# T1 sequence (looked up): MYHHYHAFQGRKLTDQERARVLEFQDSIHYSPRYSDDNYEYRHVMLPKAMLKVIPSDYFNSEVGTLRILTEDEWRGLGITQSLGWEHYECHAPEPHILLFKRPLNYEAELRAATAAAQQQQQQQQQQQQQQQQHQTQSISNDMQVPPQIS
# EXPERIMENT: ITC
Non-standard residues stand in square brackets, D forms with d. No end group written: not given here. pT = C[C@@H](OP(=O)(O)O)[C@H](N)C(=O)O
MEASURED QUANTITY: Kd (µM)

AIPI[pT]PT [phosCdc6^3–9] = 61
AIPI[pT]P [phosCdc6^3–8] = 81
SAIPI[pT]P [phosCdc6^2–8] = 62
TPS[pT]PKRS [phosSic1^(2–9; P7K)] = 120
ESVT[pT]PIT [phosSwe1^117–124] = 170
RIPE[pT]PVK [phosSwe1^192–199] = 60
TPS[pT]PTRS [phosSic1^(2–9; P7T)] = 70
TPS[pT]PPRS [phosSic1^2–9] = 95
SAIPI[pT]PTK [phosCdc6^2–10] = 130
EEIS[pT]PTR [phosSwe1^369–376] = 160
TYS[pT]PPRS [phosSic1^(2–9; P3Y)] = 90

Where do these numbers come from? They come from paper PMC4242096.
